Tested on: Staphylococcus aureus
measurement_description: Inhibition of C-terminal hexahistidine-tagged recombinant Staphylococcus aureus Ddl expressed in Escherichia coli BL21(DE3) assessed as remaining activity using D-Ala as substrate at 250 uM incubated for 5 mins in presence of ATP by antimony phosphomolybdate assay (reference value: 100+/-2%)
measurement_name: Activity (%)

> print(dat)
                                    molecule           study.system  endpoint.value
 1  Nc1ncnc2c1ncn2[C@@H]1O[C@H](CCNS(=O)(=O)NC(=O)OCCCC2CCCC2)[C@@H](O)[C@H]1O  Staphylococcus aureus              79
 2        CC(C)(C)OC(=O)N[C@@H]1CON(CCO)C1=O  Staphylococcus aureus              90
 3  Nc1ncnc2c1ncn2CCCCNS(=O)(=O)NC(=O)OCCc1ccc(Cl)c(Cl)c1  Staphylococcus aureus             110
 4  Nc1ncnc2c1ncn2[C@@H]1O[C@H](CCNS(=O)(=O)NC(=O)OCCc2ccccc2Cl)[C@@H](O)[C@H]1O  Staphylococcus aureus              87
 5  Nc1ncnc2c1ncn2[C@@H]1O[C@H](CCNS(=O)(=O)NC(=O)OCCc2ccc(Cl)c(Cl)c2)[C@@H](O)[C@H]1O  Staphylococcus aureus              85
 6  COc1ccc(CCCCOC(=O)NS(=O)(=O)NCC[C@H]2O[C@@H](n3cnc4c(N)ncnc43)[C@H](O)[C@@H]2O)cc1  Staphylococcus aureus              90
 7  Nc1ncnc2c1ncn2[C@@H]1O[C@H](CCNS(=O)(=O)NC(=O)OCCCc2ccc(Cl)cc2)[C@@H](O)[C@H]1O  Staphylococcus aureus              96
 8  Nc1ncnc2c1ncn2[C@@H]1O[C@H](CCNS(=O)(=O)NC(=O)OCCc2cccc(Cl)c2)[C@@H](O)[C@H]1O  Staphylococcus aureus              91
 9  NCC[C@H]1O[C@@H](n2cnc3c(N)ncnc32)[C@H](O)[C@@H]1O  Staphylococcus aureus              63
10  CC1CNCCN1CCOC(=O)NS(=O)(=O)NCC[C@H]1O[C@@H](n2cnc3c(N)ncnc32)[C@H](O)[C@@H]1O (stereo partly specified)  Staphylococcus aureus              76
11  CC1(C)O[C@@H]2[C@H](O1)[C@@H](CCNS(=O)(=O)NC(=O)OCCc1ccc(Cl)c(Cl)c1)O[C@H]2n1cnc2c(N)ncnc21  Staphylococcus aureus              89
12  CC(C)(C)OC(=O)NS(=O)(=O)NCC[C@H]1O[C@@H](n2cnc3c(N)ncnc32)[C@@H]2OC(C)(C)O[C@@H]21  Staphylococcus aureus              91
13  Nc1ncnc2c1ncn2[C@@H]1O[C@H](CCNS(=O)(=O)NC(=O)OCCN2OC[C@@H](N)C2=O)[C@@H](O)[C@H]1O  Staphylococcus aureus              70
14  CC1(C)O[C@@H]2[C@H](O1)[C@@H](CCN)O[C@H]2n1cnc2c(N)ncnc21  Staphylococcus aureus              82
15  Nc1ncnc2c1ncn2[C@@H]1O[C@H](CCNS(N)(=O)=O)[C@@H](O)[C@H]1O  Staphylococcus aureus              72
16  Nc1ncnc2c1ncn2[C@@H]1O[C@H](CCNS(=O)(=O)NC(=O)OCCc2ccccc2)[C@@H](O)[C@H]1O  Staphylococcus aureus              80
